All figures here come from patent US12595230B2.

- experimental-target: ERα (Homo sapiens, UniProt P03372)
- Construct: host or cells: MCF7
- Sequence (P03372 whole entry): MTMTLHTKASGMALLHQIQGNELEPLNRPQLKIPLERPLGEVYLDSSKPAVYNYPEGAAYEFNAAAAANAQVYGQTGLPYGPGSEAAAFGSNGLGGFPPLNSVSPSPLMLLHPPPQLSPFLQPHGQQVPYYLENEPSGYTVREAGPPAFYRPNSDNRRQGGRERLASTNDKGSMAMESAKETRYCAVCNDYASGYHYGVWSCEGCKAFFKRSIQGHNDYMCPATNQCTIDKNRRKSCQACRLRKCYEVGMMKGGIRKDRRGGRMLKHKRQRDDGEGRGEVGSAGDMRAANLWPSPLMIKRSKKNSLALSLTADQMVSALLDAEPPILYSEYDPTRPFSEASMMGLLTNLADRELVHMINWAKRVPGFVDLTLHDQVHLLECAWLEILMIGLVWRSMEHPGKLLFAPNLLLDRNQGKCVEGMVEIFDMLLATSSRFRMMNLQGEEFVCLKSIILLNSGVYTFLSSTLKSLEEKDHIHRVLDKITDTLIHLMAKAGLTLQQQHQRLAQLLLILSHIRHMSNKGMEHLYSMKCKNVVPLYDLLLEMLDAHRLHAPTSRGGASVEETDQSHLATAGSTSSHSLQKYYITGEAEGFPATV
- measurement-notes: Estrogen receptor degradation activity: breast cancer cell ERα in cell western assay (MCF7 cells)
- Format: cell-based
- measurement-parameters: 4 hours post compound addition, concentration which degrades 50% of the estrogen receptor, read-out: Degradation IC50
metric-name: DC50 (nM)

CC1(C)CCC(C2=C(c3ccc(CC4CN(CCCF)C4)cc3)c3ccc(C(=O)O)cc3CCC2)CC1.Cl: 0.3

(I) O=C(O)c1ccc2c(c1)CCCC(c1ccc(Cl)cc1C(F)(F)F)=C2c1ccc(CC2(F)CN(CCCF)C2)cc1
(II) CC(C)CC1=C(c2ccc(CC3CN(CCCF)C3)cc2)c2ccc(C(=O)O)cc2CCC1
## Task Exercise: compare I and II ; which one has the greater DC50? Kindly state the label of the option you pick.
## Result I
(I: 5.8 nM, II: 0.4 nM)

(A) Cc1ccc(C2=C(c3ccc(CC4CN(CCCF)C4)cc3)c3ccc(C(=O)O)cc3CCC2)c(F)c1.Cl
(B) O=C(O)c1ccc2c(c1)CCCC(c1cccc(CO)c1)=C2c1ccc(CC2CN(CCCF)C2)cc1
## Task Compare reported DC50 values for A and B . Which is lower? Kindly state the label of the option you pick.
## Result A
(A: 0.4 nM, B: 110 nM)

----------
- experimental-target: ERα (Homo sapiens)
- Construct: host or cells: MCF7
- measurement-notes: Estrogen receptor degradation activity: breast cancer cell ERα in cell western assay (MCF7 cells)
- Assay type: cell-based
- measurement-parameters: 0.3 μM, 4 hours, relative to fulvestrant 0.1 μM positive control
metric-name: % Degradation At 0.3 μM (%)

O=C(O)c1ccc2c(c1)CCCC(c1ccc(Cl)cc1Cl)=C2c1ccc(CC2(O)CN(CCCF)C2)cc1 [Example 233]: 85
Cl.O=C(O)c1ccc2c(c1)CCCC(c1c(F)cc(F)cc1C(F)F)=C2c1ccc(CC2CN(CCCF)C2)cc1 [Example 284]: 96
O=C([O-])c1ccc2c(c1)CCCC(c1cc(C(F)F)ccc1F)=C2c1ccc(CC2CN(CCCF)C2)cc1.[Na+] [Example 273]: 89
O=C(O)c1ccc2c(c1)CCCC(c1cccc(CC(F)(F)F)c1)=C2c1ccc(CC2CN(CCCF)C2)cc1 [Example 298]: 82
COc1ccc(C2=C(c3ccc(CC4CN(CCCF)C4)cc3)c3ccc(C(=O)O)cc3CCC2)c(F)c1 [Example 16]: 94
O=C(O)c1cc2c(cc1Cl)C(c1ccc(CC3CN(CCCF)C3)cc1)=C(c1ccc(Cl)cc1Cl)CCC2 [Example 248]: 90
Cc1cc(F)ccc1C1=C(c2ccc(CC3CN(CCC(F)F)C3)cc2)c2ccc(C(=O)O)cc2CCC1 [Example 279]: 84
O=C(O)c1ccc2c(c1)CCCC(c1ccc(F)cc1C(F)(F)F)=C2c1ccc(CC2CN(CCC(F)F)C2)cc1 [Example 276]: 85
O=C(O)c1ccc2c(c1)CCCC(c1ccc(F)c(CC(F)(F)F)c1)=C2c1ccc(CC2CN(CCCF)C2)cc1 [Example 290]: 84
O=C(O)c1c(F)cc2c(c1F)CCCC(c1ccccc1Cl)=C2c1ccc(CC2CN(CCCF)C2)cc1 [Example 224]: 82
Cl.O=C(O)c1ccc2c(c1)CCCC(c1ccc(C(F)(F)F)cc1)=C2c1ccc(CC2CN(CCCF)C2)cc1 [Example 318]: 94
O=C(O)c1ccc2c(c1)CCCC(C1=CC3(C1)CC(F)(F)C3)=C2c1ccc(CC2CN(CCCF)C2)cc1 [Example 50]: 88
O=C(O)c1ccc2c(c1)CCCC(c1cccc(F)c1F)=C2c1ccc(CC2CN(CCCF)C2)cc1 [Example 22]: 92
Cc1cc(Cl)ccc1C1=C(c2ccc(CC3CN(CCCF)C3)cc2)c2ccc(C(=O)O)cc2OCC1 [Example 263]: 90
C[C@H]1CC[C@H](C2=C(c3ccc(CC4CN(CCCF)C4)cc3)c3ccc(C(=O)O)cc3CCC2)CC1 [Example 15]: 86
Cl.O=C(O)c1ccc2c(c1)CCCC(c1ccc(F)cc1Cl)=C2c1ccc(CC2CN(CCCF)C2)cc1 [Example 8]: 92
O=C([O-])c1ccc2c(c1)CCCC(c1cc(F)cc(C(F)F)c1)=C2c1ccc(CC2CN(CCCF)C2)cc1.[Na+] [Example 251]: 87
O=C(O)c1ccc2c(c1)CCCC(c1ccc(F)cc1CC(F)(F)F)=C2c1ccc(CC2CN(CCCF)C2)cc1 [Example 272]: 90
O=C(O)c1ccc2c(c1)CCC(C1CC1)C(c1ccc(Cl)cc1)=C2c1ccc(CC2CN(CCCF)C2)cc1 (racemic) [Example 324]: 86
Cl.[2H]C([2H])(CCF)N1CC(Cc2ccc(C3=C(c4ccc(Cl)cc4Cl)CCCc4cc(C(=O)O)ccc43)cc2)C1 [Example 208]: 95
CC1CCc2cc(C(=O)O)ccc2C(c2ccc(CC3CN(CCCF)C3)cc2)=C1c1ccc(F)cc1 (racemic) [Example 325]: 89
COc1c(C(=O)O)ccc2c1CCCC(c1ccc(F)cc1F)=C2c1ccc(CC2CN(CCCF)C2)cc1 [Example 270]: 100
Cl.O=C(O)c1ccc2c(c1)CCCC(C1=CCC(F)(F)CC1)=C2c1ccc(CC2CN(CCCF)C2)cc1 [Example 5]: 86
Cc1cccc(C2=C(c3ccc(CC4CN(CCCF)C4)cc3)c3ccc(C(=O)O)cc3CCC2)c1Cl [Example 30]: 94
O=C(O)c1ccc2c(c1)CCCC(c1ccc(Cl)cc1C(F)(F)F)=C2c1ccc(CC2CN(CCC(F)F)C2)cc1 [Example 289]: 86
O=C(O)c1ccc2c(c1)CCCC(c1ccc(Cl)cc1Cl)=C2c1ccc(C(F)C2CN(CCCF)C2)cc1 (single isomer, unassigned) [Example 43]: 90
O=C(O)c1ccc2c(c1)CCCC(c1ncc(Cl)cc1C(F)(F)F)=C2c1ccc(CC2CN(CCC(F)F)C2)cc1 [Example 291]: 84
O=C(O)c1ccc2c(c1)CCCC(c1ncc(Cl)cc1C(F)(F)F)=C2c1ccc(CC2CN(CCCF)C2)cc1 [Example 218]: 92
